Would you kindly list Ki for each of these molecules?
MEASUREMENT_TARGET: human CB1 receptor (Homo sapiens)
ASSAY: Human CB1 receptor binding, [3H] CP-55,940 displacement on HEK cell membranes
Parameters: expressed in transfected cells; host or cells: HEK cells, doxycycline-induced; membrane preparation
CONDITION_SET: CB1 Ki
One number for each entry, in nM.

MOLECULE	OBSERVED_RESULT
CC(C)(C)C(NC(=O)c1nn(Cc2ccc(F)cc2)c2ccc(F)cc12)C(N)=O (stereo not shown) [Example 170]	0.27
Cc1noc(CNC(=O)C(NC(=O)c2nn(Cc3ccc(F)cc3)c3ccccc23)C(C)(C)C)n1 (stereo not shown) [Example 139]	0.82
CC(C)(C)[C@H](NC(=O)c1nn(Cc2ccccc2)c2ccc(Br)cc12)C(N)=O [Example 7]	2.04

Now consider a different molecule.
Give the reported Ki for Cc1nc(CNC(=O)C(NC(=O)c2nn(Cc3ccc(F)cc3)c3ccccc23)C(C)(C)C)no1 (stereo not shown) [Example 131] (system: human CB1 receptor (Homo sapiens)).
0.6

* * *

MEASUREMENT_TARGET: UniProt:P21554
ASSAY: Human CB1 receptor binding, [3H] CP-55,940 displacement on HEK cell membranes
Set-up: expressed in transfected cells; host or cells: HEK cells, doxycycline-induced; membrane preparation
CONDITION_SET: CB1 Ki
ASSAY_ENDPOINT: Ki (µM)
One number for each entry, in µM.

Take a look at these entries with their results.
MOLECULE	MEASUREMENT_TARGET	ASSAY_ENDPOINT	OBSERVED_RESULT
Cc1cc(Cn2nc(C(=O)N[C@H](C(N)=O)C(C)(C)C)c3ccccc32)no1	UniProt:P21554	Ki	0.954
CC(C)(C)[C@H](NC(=O)c1nn(Cc2ccccc2)c2ncccc12)C(N)=O	UniProt:P21554	Ki	0.0115

Here are 5 molecules. What values of Ki were reported for them?
1. CC(C)(C)[C@H](NC(=O)c1nn(Cc2ccc(F)cc2)c2ccccc12)C(=O)N[C@@H]1CCCC[C@H]1O
2. CC(C)(C)[C@H](NC(=O)c1nn(Cc2ccc(C#N)cc2)c2ccccc12)C(=O)NCC1CNC(=O)O1 (stereo partly shown)
3. CC(C)(C)[C@H](NC(=O)c1nn(Cc2ccc(C#N)cc2)c2ccccc12)C(=O)N[C@H]1C[C@@H](C(N)=O)C1
4. CC(C)(C)[C@H](NC(=O)c1nn(Cc2ccc(C(F)(F)F)cc2)c2ccccc12)C(=O)NC[C@H](O)CO
5. CC(C)(C)[C@H](NC(=O)c1nn(Cc2ccc(F)cc2)c2ccccc12)C(=O)NC[C@H]1C[C@@H]1CO

[0.108, 0.243, 0.239, 0.0986, 0.00561]

* * *

MEASUREMENT_TARGET: human CB1 receptor (Homo sapiens, UniProt P21554)
Sequence (P21554 whole entry): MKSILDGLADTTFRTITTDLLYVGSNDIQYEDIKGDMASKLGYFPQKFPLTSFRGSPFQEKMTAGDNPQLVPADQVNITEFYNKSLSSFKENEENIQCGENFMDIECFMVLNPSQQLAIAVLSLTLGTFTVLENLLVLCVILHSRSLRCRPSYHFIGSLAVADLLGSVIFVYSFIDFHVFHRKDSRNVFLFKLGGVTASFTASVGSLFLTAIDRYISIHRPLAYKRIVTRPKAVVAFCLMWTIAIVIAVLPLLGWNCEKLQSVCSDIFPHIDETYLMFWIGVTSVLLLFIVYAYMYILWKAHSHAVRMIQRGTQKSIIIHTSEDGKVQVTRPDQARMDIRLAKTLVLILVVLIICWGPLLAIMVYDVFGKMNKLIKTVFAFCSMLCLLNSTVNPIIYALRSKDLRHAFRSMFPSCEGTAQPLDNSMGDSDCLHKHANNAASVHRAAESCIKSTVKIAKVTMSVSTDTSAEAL
ASSAY: Human CB1 receptor binding, [3H] CP-55,940 displacement on HEK cell membranes
Parameters: expressed in transfected cells; host or cells: HEK cells, doxycycline-induced; membrane preparation
CONDITION_SET: read-out: CB1 Ki
Would you kindly list Ki for each of these compounds?
Give bare numbers, in nM.

Take a look at these entries with their results.
COMPOUND	OBSERVED_RESULT
CC(C)(C)[C@H](NC(=O)c1nn(Cc2ccc(F)cc2)c2ccccc12)C(=O)NCCN1Cc2ncccc2C1=O	10.1
CC(C)(C)C(NC(=O)c1nn(Cc2ccc(C#N)cc2F)c2ccccc12)c1nnc(N)o1 (stereo not shown)	2.22
CCOC(=O)[C@H]1C[C@@H](NC(=O)[C@@H](NC(=O)c2nn(Cc3ccc(C#N)cc3F)c3ccccc23)C(C)(C)C)C1	238
CC(C)(C)[C@H](NC(=O)c1nn(Cc2ccc(F)cc2)c2ccccc12)C(=O)NC[C@H](O)CN1CCOCC1	21.3

Here are 3 compounds. What values of Ki were reported for them?
1. CC(C)(C)[C@H](NC(=O)c1nn(Cc2ccc(C#N)cc2)c2ccccc12)C(=O)NCCNS(=O)(=O)c1ccc(C#N)cc1
2. CC(C)(C)C(NC(=O)c1nn(Cc2ccccc2)c2ccccc12)C(=O)NCCNS(=O)(=O)C1CC1 (stereo not shown)
3. CC(C)(C)[C@H](NC(=O)c1nn(Cc2ccc(F)cc2)c2ccccc12)C(=O)NCCNc1ccccn1

1: 6.75; 2: 1.18; 3: 15.3

FYI, the data here is from patent US20110028447A1.
